- MEASUREMENT_TARGET: amaranthin (Amaranthus caudatus, UniProt Q71QF2)
- Sequence (Q71QF2 entry or part of it): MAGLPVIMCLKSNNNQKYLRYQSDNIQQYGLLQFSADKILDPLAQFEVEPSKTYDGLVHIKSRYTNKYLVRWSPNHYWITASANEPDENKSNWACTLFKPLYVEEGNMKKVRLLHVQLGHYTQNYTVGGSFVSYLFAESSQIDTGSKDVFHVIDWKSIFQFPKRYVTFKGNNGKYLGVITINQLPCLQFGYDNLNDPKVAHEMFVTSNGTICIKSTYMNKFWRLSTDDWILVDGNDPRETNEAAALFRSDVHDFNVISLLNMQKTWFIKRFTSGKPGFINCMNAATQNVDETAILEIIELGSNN
- METHOD_SUMMARY: Hapten inhibition of amaranthin/asialo-ovine submaxillary mucin precipitation
- Format: binding
- RECORDED_CONDITIONS: N-Acetylgalactosamine = 1
Please go through the items and note down their Relative Inhibition potency ACA.

Example results:
> print(dat)
                                   molecule   result
1  OC[C@H]1OC(O)[C@H](O)[C@@H](O)[C@H]1O (stereo partly shown)  < 0.002
2  C=CCO[C@H]1O[C@H](CO)[C@H](O)[C@H](O[C@@H]2O[C@H](CO)[C@H](O)[C@H](O)[C@H]2O)[C@H]1NC(C)=O      376
3  CO[C@@H]1C[C@@H](O)[C@@H](O)[C@@H](CO)O1   < 0.08

Would you mind giving Relative Inhibition potency ACA for every molecule in the list below?
1. CC(=O)N[C@H]1C(O)O[C@H](CO)[C@H](O)[C@@H]1O[C@@H]1O[C@H](CO)[C@H](O)[C@H](O)[C@H]1O (stereo partly shown)
2. CO[C@@H]1O[C@H](CO)[C@H](O)[C@H](O)[C@H]1O [Methyl β-galactoside]
3. N[C@H]1C(O)O[C@H](CO)[C@H](O)[C@@H]1O (stereo partly shown)
4. OC[C@H]1O[C@@H](O[C@H]2[C@H](O)[C@@H](O)C(O)O[C@@H]2CO)[C@H](O)[C@@H](O)[C@H]1O (stereo partly shown)

Output:
232
< 0.003
< 0.002
< 0.01
